Below, each of the molecules is paired with its reported pIC50 value.
- Test Target: Cbl-b (Homo sapiens (Human), UniProt Q13191)
- Sequence (Q13191 36-427): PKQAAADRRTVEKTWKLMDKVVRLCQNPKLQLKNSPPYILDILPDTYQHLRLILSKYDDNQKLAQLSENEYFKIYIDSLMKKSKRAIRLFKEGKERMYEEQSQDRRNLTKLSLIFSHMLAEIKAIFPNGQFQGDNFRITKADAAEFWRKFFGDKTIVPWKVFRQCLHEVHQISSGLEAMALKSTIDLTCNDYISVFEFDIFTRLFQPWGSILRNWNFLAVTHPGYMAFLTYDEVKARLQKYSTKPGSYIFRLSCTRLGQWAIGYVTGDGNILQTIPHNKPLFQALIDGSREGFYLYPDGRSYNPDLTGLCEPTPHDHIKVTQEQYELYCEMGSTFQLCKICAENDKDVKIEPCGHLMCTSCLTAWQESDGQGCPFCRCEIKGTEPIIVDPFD
- Experimental Protocol: Cbl-b displacement assay (Cbl-b inhibition assay), Biological Example 8
- Format: binding
- Measurement Conditions: 0.125 nM Cbl-b final concentration (Low); Table 8-1; read-out: Cbl-b IC50 (Low)
pIC50: −log10 of the molar value.
Property Label: pIC50

Cn1cnnc1CC1(c2cccc(N3Cc4c(cc(CN5CCC6(CC6)C5)cc4C(F)(F)F)C3=O)c2)COC1 = 8.30 to 9.00
C[C@@H]1CN(Cc2cc3c(c(C(F)(F)F)c2)CN(c2cccc(C4(Cc5nncn5C)COC4)c2)C3=O)CCC1(F)F = > 9.00
C[C@@H](c1cc2c(c(C(F)(F)F)c1)CN(c1cccc(C3([C@@H](F)c4nncn4C)COC3)c1)C2=O)N1CCC2(CC2)C1 = 8.30 to 9.00
C[C@@H](c1cc2c(c(C(F)(F)F)c1)CN(c1cccc(C3(Cc4nncn4C)COC3)c1)C2=O)N1CC[C@H](F)C1 = 8.30 to 9.00
Cn1cnnc1C(F)(F)[C@](C)(F)c1cccc(N2Cc3c(cc(CN4CCC(F)(F)C4)cc3C(F)(F)F)C2=O)c1 = < 8.30
CCOc1cc(C2(Cc3nncn3C)COC2)cc(N2Cc3c(cc(CN4CCC[C@H](C)C4)cc3C(F)(F)F)C2=O)n1 = > 9.00
C[C@@H]1CN(Cc2cc3c(c(C4CC4)n2)CN(c2cccc(C4(Cc5nncn5C)COC4)c2)C3=O)CCC1(F)F = 8.30 to 9.00
Cc1cc(C(=O)Nc2cccc(C3(Cc4nncn4C)COC3)c2)nc(C2CC2)n1 = < 8.30
Cn1cnnc1C(F)(F)[C@](C)(F)c1cccc(N2Cc3c(cc(CN4CC[C@H](F)C4)cc3C(F)(F)F)C2=O)c1 = < 8.30
C[C@@H]1[C@@H](c2nncn2C)[C@H]1c1cccc(N2Cc3c(cccc3C(F)(F)F)C2=O)c1 = < 8.30
CCNc1cc(C2(Cc3nncn3C)COC2)cc(N2Cc3c(cc(CN4CCC[C@H](C)C4)cc3C(F)(F)F)C2=O)n1 = > 9.00
C[C@@H](c1cc2c(c(C(F)(F)F)c1)CN(c1cccc(C3(Cc4nncn4C)COC3)c1)C2=O)N1CCC(F)CC1 = 8.30 to 9.00
C[C@H](c1cc2c(c(C(F)(F)F)c1)CN(c1cccc(C3(Cc4nncn4C)COC3)c1)C2=O)N1CC[C@H](F)C1 = < 8.30
